# System: NCI-H23 lung
# Assay overview: NCI tumour cell line growth inhibition, 48 h; in the data active means GI50 below about 0.43 µM; inactive means the rest
Just give me one of these, please: 1 for active, -1 for inactive

Write down the call the test reported for this compound. Item: "COc1cc2nccc(Oc3ccc(NC(=O)c4cn(C(C)C)c(=O)n(-c5ccc(F)cc5)c4=O)cc3F)c2cc1OC"
-1

Param item: "CC[C@H](C)[C@H](NC(=O)c1cccn1C)C(=O)N(C)[C@H](C[C@@H](OC(C)=O)c1nc(C(=O)N[C@@H](Cc2ccccc2)C[C@H](C)C(=O)OC)cs1)C(C)C"
1

Param item: "CN(C)CCCNc1nc2ccccc2c2[nH]c3ccccc3c12"
-1

Param item: "COc1cc(CNc2oc(-c3ccccc3)c(-c3ccccc3)c2C#N)cc(CN2CCN(C)CC2)c1O"
-1

Param item: O=C1NC(c2ccccc2)C2(C(=O)O)CN(C3CC3)c3cc(N4CCNCC4)c(F)cc3C2N1 (stereo not given)
-1

Param item: O=P(O)(O)OCC1OC(n2cnc3c(NCc4ccccc4)ncnc32)C(O)C1O (stereo not given)
-1

Param item: "Cc1cc(O)c(-c2ccc([C@@H](C)CN(C)C)cc2)c2c1[nH]c(=O)c1sccc12"
-1

Param item: "N#Cc1cc(S(=O)(=O)Nc2nc3ccccc3o2)c(SCc2ccccc2)cc1Cl"
-1

Param item: "Nc1cccc2c1C(=O)c1cccc(NC(=O)c3ccccc3)c1C2=O"
-1

Param item: "CCn1c(-c2nonc2N)nc2c(N3CCCC3)nccc21"
-1
